Listing of recorded pKi by entry.
System Under Test: human α-Syn fibrils (Homo sapiens)
Construct: Human full-length α-Syn (NM_000345) was cloned
Test Summary: Competition binding against 5 nM [3H]BF-227 on α-Syn fibrils
Assay Conditions: 5 nM [3H]BF-227, Cheng-Prusoff; geometric mean (low; high errors of the geometric mean)
Here pKi is given on a logarithmic scale as minus log10 of the concentration in mol/L.

| Smiles Code | pKi |
| --- | --- |
| CN(C)c1ncc(/C=C/c2nc3ccc(OCCOCCOCCOCCOCCF)cc3o2)s1 | 7.12 |

Asked: Given the entry CN(C)c1ncc(/C=C/c2nc3ccc(OCCOCCOCCOCCF)cc3o2)s1 , report its measured pKi.
Given back: 7.00
